Tested on: MDA-MB-435 melanoma
procedure_details: NCI-60 one-dose screen, 48 h (100 = growth as untreated, 0 = no growth, -100 = all killed)
cond: 10 µM
This is part of a sample that, as a whole, favours compounds with a hit. Of some 83,000 tested, about 20% had one in any assay.

compound	unit_abbrev	growth
O=C(O)CCCCCCCCCCN1C(=O)/C(=C/c2cnc(-c3ccc(Cl)cc3)s2)SC1=S	%	49
Cc1ccc(CSc2nc(-c3ccc(F)cc3)c(C#N)c(=O)[nH]2)cc1	%	106
CC[C@@]1(O)C(=O)OCc2c1cc1n(c2=O)Cc2c-1nc1cc(F)c(C)c3c1c2[C@@H](N)CC3	%	-41.9
Cc1cc(C)cc(Oc2cccc(-c3c(C)nnn3C3CCN(CCN(C)C)CC3)n2)c1	%	20.7
Clc1cccc(N/N=C/c2c[nH]c3ccccc23)n1	%	19.8
CCN1CCN(Cc2ccc(NC(=O)c3cccc(-n4cc(-c5ccc(NC(C)=O)nc5)nn4)c3)cc2C(F)(F)F)CC1	%	-39.8
CC(=O)c1ccc(Nc2nc(SC(C)C)nc(-c3ccccc3)c2C#N)cc1	%	47.4
COC1=C[C@]23CCC(=O)N2CCc2cc4c(cc2[C@@H]3[C@@H]1OC(=O)CCCC(C)C)OCO4	%	74.1
CN1CCN(Cc2ccc(NC(=O)c3cncc(C#Cc4cnc5ccc(N[C@@H]6CCOC6)nn45)c3)cc2C(F)(F)F)CC1	%	-87.6
COc1ccc(CN2[C@@H](C(=O)NCc3ccc(C(=O)NO)cc3)Cc3c([nH]c4ccccc34)[C@@H]2C)cc1	%	-36.4
COc1cc(/C=C/C(=O)c2ccc(F)cc2)ccc1Oc1nc(Nc2ccc(F)cc2)nc(N(C)C)n1	%	68.5
COc1ccc(C2N(c3ccc(Br)cc3)N=C(C(C)=O)N2[C@H]2[C@H](OC(C)=O)O[C@H](COC(C)=O)[C@@H](OC(C)=O)[C@@H]2OC(C)=O)cc1 (stereo partly drawn)	%	83.7
Cc1ccc(-c2cc(C(=O)N=Nc3c(O)[nH]c4ccc(Br)cc34)c3ccccc3n2)cc1	%	45.1
O=C(Cc1ccc2c(c1)CN(C1CCC(=O)NC1=O)C2=O)NCc1cccc2ccccc12 (stereo not drawn)	%	-15.1
CN(CCO)c1oc(-c2ccccc2)nc1[P+](c1ccccc1)(c1ccccc1)c1ccccc1	%	2.53
COc1ccc(C(=O)/C=C/c2cc(C(F)(F)F)cc(C(F)(F)F)c2)cc1S(N)(=O)=O	%	-69.2
O=C(Nc1nc2ccccc2s1)c1ccc(Br)cc1	%	88.8
Cc1ccc(NC(=O)NCn2c(=O)[nH]c3ccccc3c2=O)cc1	%	86.3

* * *

System: MDA-MB-435 melanoma
procedure_details: NCI-60 one-dose screen, 48 h (100 = growth as untreated, 0 = no growth, -100 = all killed)
cond: 10 µM
Compounds without any hit were thinned out: in the full panel of roughly 83,000, 20% have a hit.

compound	system	unit_abbrev	growth
CCOC(=O)C1=C(N)N(c2ccc(Cl)cc2)C2=C(C(=O)CC(C)(C)C2)C1c1ccc(N2CCOCC2)cc1 (stereo unspecified)	MDA-MB-435 melanoma	%	101
Cc1ccc(C(=O)NNC(=O)CSc2nc3ccccc3c(=O)[nH]2)cc1	MDA-MB-435 melanoma	%	101
COc1ccc(/C=C/C(=O)c2ccc(S(=O)(=O)NCCNc3nc(Nc4ccc(F)cc4)nc(N(C)C)n3)cc2)cc1	MDA-MB-435 melanoma	%	25.1
O=C(/C=C/Nc1ccc(F)cc1F)c1ccc2c(c1)Nc1ccccc1S2	MDA-MB-435 melanoma	%	9.72
CC(C)(C)Nc1nc2cc(Cl)c(Cl)cc2nc1S(C)(=O)=O	MDA-MB-435 melanoma	%	44.6
O=C1CCC(N2Cc3cc(NC(=O)COc4ccccc4)ccc3C2=O)C(=O)N1 (stereo unspecified)	MDA-MB-435 melanoma	%	88.1
O=C(c1ccc(O)cc1)C1[C@H](c2ccccc2Br)[C@@H](c2ccccc2)NC12C(=O)Nc1ccc(Br)cc12 (stereo partly specified)	MDA-MB-435 melanoma	%	33.8
COc1cc2c3c(n(CCCN4CCOCC4)c(=O)c2cc1OC)-c1nc2c(cc1C3=O)OCO2	MDA-MB-435 melanoma	%	16.4
CCOc1ccc(/C=N/NC(=O)Cn2nc(Cc3ccccc3)c3onc(C)c3c2=O)cc1	MDA-MB-435 melanoma	%	55.3
Nc1n[nH]c2cccc(C#Cc3cccc(NC(=O)Nc4cc(C(F)(F)F)cc(C(F)(F)F)c4)c3)c12	MDA-MB-435 melanoma	%	-76.7
CN1CCN(c2ccc(C(=O)/C=C/c3ccc(C#N)cc3)cc2)CC1	MDA-MB-435 melanoma	%	28.1
CC(=O)Nc1ccc(-c2cn(-c3cccc(C(=O)Nc4cc(CN5CCOCC5)cc(C(F)(F)F)c4)c3)nn2)cn1	MDA-MB-435 melanoma	%	-89.1
COc1cc2oc(-c3cccc(C(=O)Nc4ccc(Cl)cc4)c3)cc(=O)c2c(OCCNC(=O)CNC(=O)OC(C)(C)C)c1OC	MDA-MB-435 melanoma	%	66.7
Cc1ccc(-c2ccc(SCC(=O)Nc3ccc(Cl)c(C(F)(F)F)c3)nn2)cc1	MDA-MB-435 melanoma	%	-18.8
CC(=O)Nc1ccc(-n2cnc3cc(-c4ccc(O)cc4)ccc32)cc1C	MDA-MB-435 melanoma	%	-13.2
CC1(c2ccccc2)NC(=O)N(CC(=O)Nc2ccc(C(=O)/C=C/C=C/c3ccccc3)cc2)C1=O (stereo unspecified)	MDA-MB-435 melanoma	%	37.1
O=c1oc2ccccc2cc1-c1csc(N=Nc2c(O)[nH]c3ccc(Br)cc23)n1	MDA-MB-435 melanoma	%	102
CN(C)CCNC(=O)OCCCCOc1cc(O)c2c(=O)cc(-c3ccccc3)oc2c1	MDA-MB-435 melanoma	%	-51
O=C1Nc2cc(-c3ccc(NC(=O)c4cccc([N+](=O)[O-])c4)cc3)ccc2/C1=C/c1ccc[nH]1	MDA-MB-435 melanoma	%	105
COc1nccnc1NS(=O)(=O)c1ccc(NC2=C(Cl)C(=O)c3nc(C)ccc3C2=O)cc1	MDA-MB-435 melanoma	%	103
CN1CCN(c2ccc(Nc3nc(N4CCN(S(=O)(=O)c5ccc(Cl)cc5)CC4)c4sccc4n3)cc2)CC1	MDA-MB-435 melanoma	%	-100
O=C1Nc2cc(-c3ccc(NC(=O)c4cccs4)cc3)ccc2/C1=C/c1ccc[nH]1	MDA-MB-435 melanoma	%	102
Clc1ccc2c(N/N=C/c3c[nH]c4ccc(Br)cc34)ccnc2c1	MDA-MB-435 melanoma	%	-77.3
CCCCSc1nc(Nc2ccc(/C(C)=N/NC(N)=S)cc2)c(C#N)c(-c2ccc(OC)cc2)n1	MDA-MB-435 melanoma	%	59.3
Brc1ccc(/C=N/Nc2ncnc3sc4c(c23)CCN(Cc2ccccc2)C4)cc1	MDA-MB-435 melanoma	%	73.5
COc1ccc(N(C)c2cc(C#N)nc3ccccc23)cc1/C=C/C(=O)NO	MDA-MB-435 melanoma	%	-70.5
CC1=C2C(=C[C@@](C)(COCOCCCl)[C@@H]2O)C(=O)[C@](C)(O)C12CC2	MDA-MB-435 melanoma	%	-81.1
Cc1ccc(C(C)C)cc1NC(=O)c1ccccc1O	MDA-MB-435 melanoma	%	44.7
Cc1ccc(-c2nc3ccc(C(=O)N=Nc4c(O)[nH]c5ccc([N+](=O)[O-])cc45)cc3[nH]2)cc1	MDA-MB-435 melanoma	%	62.6
CN1C(=O)/C(=C/c2nccs2)SC1=S	MDA-MB-435 melanoma	%	83.9
CCOC(=O)C1=C(N)N(c2ccccc2)C2=C(C(=O)CC(C)(C)C2)C1c1ccc(Cl)cc1 (stereo unspecified)	MDA-MB-435 melanoma	%	22
CCOP(=O)(OCC)O[C@H]1CC[C@]2(C)[C@H]3CC[C@@H]4[C@@H]([C@](C)(O)CCC=C(C)C)CC[C@@]4(C)[C@]3(C)CC[C@H]2C1(C)C	MDA-MB-435 melanoma	%	29.9
O=C(c1ccc(-n2c(=O)[nH]c3ccccc3c2=O)cc1)N1CCOCC1	MDA-MB-435 melanoma	%	102
C#Cc1ccc(S(=O)(=O)Nc2cccc(-c3csc(NC(C)=O)n3)c2)cc1	MDA-MB-435 melanoma	%	51.5
CCOP(=O)(OCC)O[C@H]1CCC(=O)[C@@H]2[C@H]1[C@H]1C[C@@H]3[C@@]4(C)CCCC(C)(C(=O)OC)[C@@H]4CC[C@@]23C=C1C(C)C (stereo partly specified)	MDA-MB-435 melanoma	%	52
O=C(Nc1ccc(Cl)c(C(F)(F)F)c1)c1cncc(C#Cc2cnc3ccc(N4CCOCC4)nn23)c1	MDA-MB-435 melanoma	%	19.3

Where these numbers come from: PubChem BioAssay (NCI)
